Data origin, for the record: the RepoRT retention time repository (doi:10.1016/j.chroma.2015.11.014)

test: RP, Agilent ZORBAX Eclipse Plus C18, 150 × 2.1 mm, 3.5 µm, 40 °C, 0.3 mL/min, estimated dead time 1.1 min; A: water + 0.1% formic acid; B: acetonitrile + 0.1% formic acid; gradient (min/%B) 0/2 1/2 2/20 16.5/98 22/98; details: stereoisomer not certain
Below, each entry is listed with its recorded LC retention time.
// note: answer is a bare numeric in min

Here are 8 compounds together with their reported answers.
> print(dat)
                                   compound  unit.descriptor  experimental.value
1                   CC(=O)Nc1ccc(C(=O)O)cc1              min                5.59
2                        Cc1cc2n[nH]nc2cc1C              min                8.01
3                             COc1ccc(O)cc1              min                6.96
4                             CCP(=O)(CC)CC              min                5.15
5                CCCCCCCC[N+](C)(C)CCCCCCCC              min                11.7
6        O=C1c2ccccc2C(=O)C1c1nc2ccccc2cc1O              min                14.7
7  CC12CCC3c4cc(O)c(O)cc4CCC3C1CCC2=O (stereo not drawn)              min                9.98
8  Nc1nc(NC2CC2)c2ncn(C3C=CC(CO)C3)c2n1 (stereo not drawn)              min                5.09

Reported LC retention time of "CCCCCCCCCCCCCC[P+](CCCC)(CCCC)CCCC" : 14.9

Reported LC retention time of "CC(=O)Nc1ccc(O)cc1" : 5.02

Reported LC retention time of "CC(=O)Nc1cc(NC(C)=O)cc(C(=O)O)c1" : 5.22

Reported LC retention time of CN(C)c1ccc(C(=C2C=CC(N(C)C)C=C2)c2ccccc2)cc1 (stereo not drawn) : 9.29

Reported LC retention time of "c1ccc2n[nH]nc2c1" : 5.88

###

assay: RP, Agilent ZORBAX Eclipse Plus C18, 150 × 2.1 mm, 3.5 µm, 40 °C, 0.3 mL/min, estimated dead time 1.1 min; A: water + 0.1% formic acid; B: acetonitrile + 0.1% formic acid; gradient (min/%B) 0/2 1/2 2/20 16.5/98 22/98; details: stereoisomer not certain
// NB: equality with 7 min counts as 0.0; only LC retention time strictly below is 1.0

> print(dat)
                                   compound  assigned.category
1  CN1C(C(=O)Nc2ccccn2)=C(O)c2ccccc2S1(=O)=O                0.0
2            CCCOc1ccc2nc(NC(=O)OC)[nH]c2c1                1.0

Qu. Lab note: LC retention time threshold 7 min. Does this compound come in strictly under it? O=c1[nH]cnc2c1ncn2C1CC(O)C(CO)O1 (centres undefined)
Ans. 1.0

Qu. Lab note: LC retention time threshold 7 min. Does this compound come in strictly under it? CNCCC(Oc1cccc2ccccc12)c1cccs1 (centres undefined)
Ans. 0.0

Qu. Lab note: LC retention time threshold 7 min. Does this compound come in strictly under it? CC12CCC(=O)C=C1CCC1C2C(O)CC2(C)C1CCC2(O)C(=O)CO (centres undefined)
Ans. 0.0

Qu. Lab note: LC retention time threshold 7 min. Does this compound come in strictly under it? "NP(=O)(c1ccccc1)c1ccccc1"
Ans. 0.0

Qu. Lab note: LC retention time threshold 7 min. Does this compound come in strictly under it? "CCCc1nc2c(C)cc(-c3nc4ccccc4n3C)cc2n1Cc1ccc(-c2ccccc2C(=O)O)cc1"
Ans. 0.0

Qu. Lab note: LC retention time threshold 7 min. Does this compound come in strictly under it? "O=C1NS(=O)(=O)c2ccccc21"
Ans. 1.0

Qu. Lab note: LC retention time threshold 7 min. Does this compound come in strictly under it? NC1=NC(O)c2ncn(COCCO)c2N1 (centres undefined)
Ans. 1.0

Qu. Lab note: LC retention time threshold 7 min. Does this compound come in strictly under it? "CCOC(=O)NCCOc1ccc(Oc2ccccc2)cc1"
Ans. 0.0

Qu. Lab note: LC retention time threshold 7 min. Does this compound come in strictly under it? "Cc1ccc(S(=O)(=O)O)cc1"
Ans. 1.0

Qu. Lab note: LC retention time threshold 7 min. Does this compound come in strictly under it? "CCN(CC)CCNC(=O)c1cc(S(C)(=O)=O)ccc1OC"
Ans. 1.0

Qu. Lab note: LC retention time threshold 7 min. Does this compound come in strictly under it? "CCCCCCCCCC(=O)N(C)C"
Ans. 0.0

Qu. Lab note: LC retention time threshold 7 min. Does this compound come in strictly under it? "CC(C)(C)OC(=O)C[P+](c1ccccc1)(c1ccccc1)c1ccccc1"
Ans. 0.0

Qu. Lab note: LC retention time threshold 7 min. Does this compound come in strictly under it? "CCP(=O)(c1ccccc1)c1ccccc1"
Ans. 0.0

Qu. Lab note: LC retention time threshold 7 min. Does this compound come in strictly under it? "C[N+](C)(Cc1ccccc1)Cc1ccccc1"
Ans. 1.0

Qu. Lab note: LC retention time threshold 7 min. Does this compound come in strictly under it? "CN(C)Cc1ccccc1"
Ans. 1.0

###

assay: RP, Agilent ZORBAX Eclipse Plus C18, 150 × 2.1 mm, 3.5 µm, 40 °C, 0.3 mL/min, estimated dead time 1.1 min; A: water + 0.1% formic acid; B: acetonitrile + 0.1% formic acid; gradient (min/%B) 0/2 1/2 2/20 16.5/98 22/98; conditions: stereoisomer not certain
Would you mind labelling by LC retention time? At or over 10 min is 1, under is 0.

Past entries and their recorded results:
> print(dat)
                                   compound  assigned.category
1                       O=S(=O)(O)NC1CCCCC1                  0
2                             c1ccc2scnc2c1                  0
3  Cc1cc(OCCOCC[N+](C)(C)Cc2ccccc2)ccc1C(C)(C)CC(C)(C)C                  1
4                      CCOC(=O)c1cnc(N)nc1N                  0
5                         Cc1ccc(C(=O)O)cc1                  0
6  CCCCCCCCCCC(C(=O)OC)[N+](C)(C)Cc1ccccc1 (stereo not drawn)                  1

Now examine the next entry.
Qu. Is the recorded value of LC retention time equal to or greater than 10 min for this compound? "CCCCCCC[N+](CCCCCCC)(CCCCCCC)CCCCCCC"
Ans. 1

###

experiment: RP, Agilent ZORBAX Eclipse Plus C18, 150 × 2.1 mm, 3.5 µm, 40 °C, 0.3 mL/min, estimated dead time 1.1 min; A: water + 0.1% formic acid; B: acetonitrile + 0.1% formic acid; gradient (min/%B) 0/2 1/2 2/20 16.5/98 22/98; settings: stereoisomer not certain
Below, each entry is listed with its recorded LC retention time.
// note: answer is a bare numeric in min

> print(dat)
                                  compound             metric  experimental.value
1  CC(N)c1nc2ccccc2s1 (stereo unspecified)  LC retention time                5.16

Reported LC retention time of "CC1=CC(=O)NS(=O)(=O)O1" : 4.12

Reported LC retention time of "Cc1c(O)c(=O)n(-c2ccccc2)n1C" : 6.83

Reported LC retention time of "CCCCCCCCCCCC[N+](C)(C)CCOc1ccccc1" : 12

Reported LC retention time of "CCSc1nc2ccccc2s1" : 13.7

Reported LC retention time of CCCC(=O)Nc1ccc(OCC(O)CNC(C)C)c(C(C)=O)c1 (stereo unspecified) : 5.96

Reported LC retention time of "COC(=O)Nc1nc2ccccc2[nH]1" : 5.08

Reported LC retention time of "CC1(C)CC(O)CC(C)(C)N1O" : 5.7

Reported LC retention time of "CN1C(C)(C)CC(OC(=O)CCCCCCCCC(=O)OC2CC(C)(C)N(C)C(C)(C)C2)CC1(C)C" : 6.48

Reported LC retention time of "c1ccc(C2=NCCN2)cc1" : 4.35

Reported LC retention time of "CCOC(=O)Nc1ccc(N)cc1" : 4.86

Reported LC retention time of "Cc1ncsc1CCO" : 4.25

Reported LC retention time of "CC(=O)Nc1c(C)n(C)n(-c2ccccc2)c1=O" : 5.59

Reported LC retention time of COc1cccc(C2(O)CCCCC2CN(C)C)c1 (stereo unspecified) : 6.21

Reported LC retention time of COC1CC(CC2CCC(C)C(C(C)C(=O)O)O2)OC2(OC(C)(C3CCC(C)(C4OC(C5OC(O)(CO)C(C)CC5C)CC4C)O3)CC2C)C1C (stereo unspecified) : 21.2

Reported LC retention time of O=C1NC(=O)C(c2ccccc2)(c2ccc(O)cc2)N1 (stereo unspecified) : 7.26

Reported LC retention time of "Cc1noc(NS(=O)(=O)c2ccc(N)cc2)c1C" : 7.56
